Readings of BT-474 pAkt (S473) % inhibition for the listed binders
Target Or System: Human HER3, endogenous, on human cancer cell lines (human, UniProt P21860 20-1342); further: test concentration or dose not given here
Assay Procedure: cell-based or functional assay
Reply numerically in %, unit not repeated.

Binder: MOR09824 (antibody, human IgG1, kappa, V domains shown, tested as IgG) VH: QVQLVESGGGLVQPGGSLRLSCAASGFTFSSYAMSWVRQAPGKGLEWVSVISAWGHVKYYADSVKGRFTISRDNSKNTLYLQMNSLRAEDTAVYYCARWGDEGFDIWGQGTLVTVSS VL: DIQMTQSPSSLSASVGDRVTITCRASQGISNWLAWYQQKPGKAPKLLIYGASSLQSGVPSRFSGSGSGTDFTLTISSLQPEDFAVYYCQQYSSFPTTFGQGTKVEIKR
BT-474 pAkt (S473) % inhibition [%]: 46
//
Binder: MOR10702 (antibody, human IgG1, kappa, V domains shown, tested as IgG) VH: EVQLLESGGGLVQPGGSLRLSCAASGFTFSSYAMSWVRQAPGKGLEWVSVISAWGHVKYYADSVKGRFTISRDNSKNTLYLQMNSLRAEDTAVYYCARWGDEGFDIWGQGTLVTVSS VL: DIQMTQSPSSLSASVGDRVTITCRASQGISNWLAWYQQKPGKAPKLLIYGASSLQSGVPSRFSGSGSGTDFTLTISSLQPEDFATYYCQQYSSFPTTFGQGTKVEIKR
BT-474 pAkt (S473) % inhibition [%]: 55

Attention now turns to another entry.
Q: Tell us which BT-474 pAkt (S473) % inhibition value is on record for MOR10703 (antibody, human IgG1, kappa, V domains shown, tested as IgG) VH: EVQLLESGGGLVQPGGSLRLSCAASGFTFSSYAMSWVRQAPGKGLEWVSAINSQGKSTYYADSVKGRFTISRDNSKNTLYLQMNSLRAEDTAVYYCARWGDEGFDIWGQGTLVTVSS VL: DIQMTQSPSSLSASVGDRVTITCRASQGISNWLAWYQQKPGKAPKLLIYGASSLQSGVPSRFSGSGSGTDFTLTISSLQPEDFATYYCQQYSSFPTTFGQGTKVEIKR
Result: 62
